assay: Cytotoxicity against human THP1-Dual KO-STING cells assessed as cell viability incubated for 24 hrs by CellTiter 96 aqueous one solution assay relative to control; format: toxicity, cell-based; set-up: concentration or dose not given beside the values; conditions: read-out: Activity
# viability at 24 h annotations
Just the number in %, nothing appended.

Example compounds with recorded viability at 24 h:
COc1cc(C(N)=O)cc2nc(NC(=O)c3ccc(C(F)(F)F)nc3C)n(C/C=C/CNC(=O)OC(C)(C)C)c12 :: 107
CC(C)(C)OC(=O)NCCCCn1c(NC(=O)c2cccnc2C(C)(C)C)nc2cc(C(N)=O)ccc21 :: 106
CC(C)(C)OC(=O)NCCCCn1c(NC(=O)c2ccccc2)nc2cc(C(N)=O)ccc21 :: 101
CCc1ncccc1C(=O)Nc1nc2cc(C(N)=O)ccc2n1CCCCNC(=O)OC(C)(C)C :: 94.7
Cc1ncccc1C(=O)Nc1nc2cc(C(N)=O)ccc2n1CCCCN :: 98.5

Prompt: Kindly indicate its recorded viability at 24 h. Item: COc1cc(C(N)=O)cc2nc(NC(=O)c3cccnc3C)n(C/C=C/CNC(=O)OC(C)(C)C)c12
Completion: 97.5

Prompt: Tell me viability at 24 h reported for CCn1nc(C)cc1C(=O)NCCCCn1c(NC(=O)c2cccnc2C)nc2cc(C(N)=O)ccc21
Completion: 105

Prompt: Query viability at 24 h for CC(C)(C)OC(=O)NCCCCn1c(NC(=O)c2ccc(C(F)(F)F)nc2)nc2cc(C(N)=O)ccc21
Completion: 108

Prompt: Give the value of viability at 24 h reported for the following: CC(C)(C)OC(=O)NCCCCn1c(NC(=O)c2ccncc2)nc2cc(C(N)=O)ccc21
Completion: 90.6
